- experimentalTarget: hNTS2 (Homo sapiens, UniProt O95665)
- Construct: expressed in transfected cells; host or cells: CHO-K1
- Sequence (O95665 whole entry): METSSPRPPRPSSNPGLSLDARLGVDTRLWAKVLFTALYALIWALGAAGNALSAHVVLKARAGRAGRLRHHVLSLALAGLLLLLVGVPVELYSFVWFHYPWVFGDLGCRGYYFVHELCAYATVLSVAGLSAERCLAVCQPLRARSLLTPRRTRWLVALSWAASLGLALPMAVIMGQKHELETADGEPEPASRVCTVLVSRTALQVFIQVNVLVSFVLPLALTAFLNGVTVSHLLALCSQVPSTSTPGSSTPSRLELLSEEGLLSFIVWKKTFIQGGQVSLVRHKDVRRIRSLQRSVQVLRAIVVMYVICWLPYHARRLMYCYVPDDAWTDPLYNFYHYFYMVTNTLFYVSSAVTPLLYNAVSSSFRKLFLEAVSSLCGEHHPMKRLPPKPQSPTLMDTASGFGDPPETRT
- assayOverview: Radioligand competition binding with [3H]NT, membranes of CHO-K1 cells expressing hNTS2
- testConditions: Table 2; read-out: hNTS2 Geometric Mean ∀ SEM (equilibrium dissociation constant Kd)
Where no end group is shown, it is not given here.
measuredAttribute: Kd (nM)
Express your answer in nM, writing the number without its unit.

{"columns": ["substance", "Kd, nM"],
 "data": [
  ["KRPYIL [NT17, [L-Lys^8]NT(8-13)]", 1.2]
]}

Now for another entry.
Can you look up the measured Kd of RRPAIL [NT08, [Ala^11]NT(8-13)] for me?
58

###

- experimentalTarget: hNTS2 (Homo sapiens, UniProt O95665)
- Construct: expressed in transfected cells; host or cells: CHO-K1
- assayOverview: Radioligand competition binding with [3H]NT, membranes of CHO-K1 cells expressing hNTS2
- testConditions: Table 2; read-out: hNTS2 Geometric Mean ∀ SEM (equilibrium dissociation constant Kd)
Where a SMILES comes first, the peptide text is derived from it. [ ]: non-standard residue; d: D form. Orn = NCCC[C@H](N)C(=O)O; Dab = NCC[C@H](N)C(=O)O
measuredAttribute: pKd
The value called pKd is obtained by taking minus log10 of the concentration in mol/L.

{"columns": ["molecule", "pKd"],
 "data": [
  ["CC[C@H](C)[C@H](NC(=O)[C@H](Cc1ccc(O)cc1)NC(=O)[C@@H]1CCCN1C(=O)[C@H](CCCNC(=N)N)NC(=O)[C@@H](N)CCCN)C(=O)N[C@@H](CC(C)C)C(=O)O [NT21, [L-Orn^8]NT(8-13)] (H-[Orn]RPYIL-OH; N-terminus and C-terminus assumed)", 8.66]
]}

Can you look up the measured pKd of CC[C@H](C)[C@H](NC(=O)[C@H](Cc1ccc(O)cc1)NC(=O)[C@@H]1CCCN1C(=O)[C@H](CCN)NC(=O)[C@@H](N)CCN)C(=O)N[C@@H](CC(C)C)C(=O)O [NT31, [DAB^8,DAB^9]NT(8-13)] (H-[Dab][Dab]PYIL-OH; N-terminus and C-terminus assumed) for me?
7.71

###

- experimentalTarget: hNTS2 (Homo sapiens)
- Construct: expressed in transfected cells; host or cells: CHO-K1
- assayOverview: Radioligand competition binding with [3H]NT, membranes of CHO-K1 cells expressing hNTS2
- testConditions: Table 2; hNTS2 over hNTS1
Where a SMILES comes first, the peptide text is derived from it. [ ]: non-standard residue; d: D form. Ala(indol-4-yl) = N[C@@H](Cc1cccc2[nH]ccc12)C(=O)O; d1Nal = N[C@H](Cc1cccc2ccccc12)C(=O)O; NMeR = CN[C@@H](CCCNC(=N)N)C(=O)O; pGlu = O=C1CC[C@@H](C(=O)O)N1; Tle = CC(C)(C)[C@H](N)C(=O)O; dOrn = NCCC[C@@H](N)C(=O)O; Orn = NCCC[C@H](N)C(=O)O; Dab = NCC[C@H](N)C(=O)O
hNTS2 Selectivity values by entry
In your answer, state the number alone without any accompanying words.

Record excerpt, results attached:
{"columns": ["compound", "measuredResult"],
 "data": [
  ["CC[C@H](C)[C@H](NC(=O)[C@H](Cc1ccc(O)cc1)NC(=O)[C@@H]1CCCN1C(=O)[C@H](CCCNC(=N)N)NC(=O)[C@H](N)CCCCN)C(=O)N[C@@H](CC(C)C)C(=O)O [NT02, [D-Lys^8]NT(8-13)] (H-[dK]RPYIL-OH; N-terminus and C-terminus assumed)", 0.2],
  ["CC(C)C[C@H](NC(=O)[C@@H](NC(=O)[C@H](Cc1cccc2[nH]ccc12)NC(=O)[C@@H]1CCCN1C(=O)[C@H](N)CCCCN)C(C)(C)C)C(=O)O [NT72] (H-[dK]P[Ala(indol-4-yl)][Tle]L-OH; N-terminus and C-terminus assumed)", 0.02]
]}

Can you look up the measured hNTS2 Selectivity of CC[C@H](C)[C@H](NC(=O)[C@H](Cc1ccc(O)cc1)NC(=O)[C@@H]1CCCN1C(=O)[C@@H](CCCN)NC(=O)[C@H](CCCNC(=N)N)NC(=O)[C@@H]1CCCN1C(=O)[C@H](CCCCN)NC(=O)[C@H](CC(N)=O)NC(=O)[C@H](CCC(=O)O)NC(=O)[C@H](Cc1ccc(O)cc1)NC(=O)[C@H](CC(C)C)NC(=O)[C@@H]1CCC(=O)N1)C(=O)N[C@@H](CC(C)C)C(=O)O [NT61, [D-Orn^9]NT(1-13)] ([pGlu]LYENKPR[dOrn]PYIL-OH; C-terminus assumed) for me?
0.2

Can you look up the measured hNTS2 Selectivity of CC[C@H](C)[C@H](NC(=O)[C@H](Cc1ccc(O)cc1)NC(=O)[C@@H]1CCCN1C(=O)[C@H](N)CCCN)C(=O)N[C@@H](CC(C)C)C(=O)O [NT35, [D-Orn^9]NT(9-13)] (H-[dOrn]PYIL-OH; N-terminus and C-terminus assumed) for me?
0.1

Can you look up the measured hNTS2 Selectivity of CC[C@H](C)[C@H](NC(=O)[C@H](Cc1ccc(O)cc1)NC(=O)[C@@H]1CCCN1C(=O)[C@H](CCCNC(=N)N)NC(=O)[C@H](N)CCCN)C(=O)N[C@@H](CC(C)C)C(=O)O [NT22, [D-Orn^8]NT(8-13)] (H-[dOrn]RPYIL-OH; N-terminus and C-terminus assumed) for me?
0.3

Can you look up the measured hNTS2 Selectivity of CC(C)C[C@H](NC(=O)[C@@H](NC(=O)[C@H](Cc1cccc2[nH]ccc12)NC(=O)[C@@H]1CCCN1C(=O)[C@H](CCCNC(=N)N)NC(=O)[C@@H](N)CCCNC(=N)N)C(C)(C)C)C(=O)O [NT65, [neo-Trp^11,tert-Leu^12]NT(8-13)] (H-RRP[Ala(indol-4-yl)][Tle]L-OH; N-terminus and C-terminus assumed) for me?
1.9

Can you look up the measured hNTS2 Selectivity of CN[C@@H](CCCNC(=N)N)C(=O)N[C@@H](CCCNC(=N)N)C(=O)N1CCC[C@H]1C(=O)N[C@H](Cc1cccc2ccccc12)C(=O)N[C@H](C(=O)N[C@@H](CC(C)C)C(=O)O)C(C)(C)C [NT79] (H-[NMeR]RP[d1Nal][Tle]L-OH; C-terminus assumed) for me?
82

Can you look up the measured hNTS2 Selectivity of CC[C@H](C)[C@H](NC(=O)[C@H](Cc1ccc(O)cc1)NC(=O)[C@@H]1CCCN1C(=O)[C@H](CCN)NC(=O)[C@@H](N)CCN)C(=O)N[C@@H](CC(C)C)C(=O)O [NT31, [DAB^8,DAB^9]NT(8-13)] (H-[Dab][Dab]PYIL-OH; N-terminus and C-terminus assumed) for me?
0.1

Can you look up the measured hNTS2 Selectivity of CC[C@H](C)[C@H](NC(=O)[C@H](Cc1ccc(O)cc1)NC(=O)[C@@H]1CCCN1C(=O)[C@H](CCCCN)NC(=O)[C@H](N)CCCNC(=N)N)C(=O)N[C@@H](CC(C)C)C(=O)O [NT15, [D-Arg^8,L-Lys^9]NT(8-13)] (H-[dR]KPYIL-OH; N-terminus and C-terminus assumed) for me?
0.2

Can you look up the measured hNTS2 Selectivity of CC[C@H](C)[C@H](NC(=O)[C@H](Cc1ccc(O)cc1)NC(=O)[C@@H]1CCCN1C(=O)[C@H](CCCN)NC(=O)[C@H](CCCNC(=N)N)NC(=O)[C@@H]1CCCN1C(=O)[C@H](CCCCN)NC(=O)[C@H](CC(N)=O)NC(=O)[C@H](CCC(=O)O)NC(=O)[C@H](Cc1ccc(O)cc1)NC(=O)[C@H](CC(C)C)NC(=O)[C@@H]1CCC(=O)N1)C(=O)N[C@@H](CC(C)C)C(=O)O [NT60, [L-Orn^9]NT(1-13)] ([pGlu]LYENKPR[Orn]PYIL-OH; C-terminus assumed) for me?
0.2

###

- experimentalTarget: hNTS2 (Homo sapiens, UniProt O95665)
- Construct: expressed in transfected cells; host or cells: CHO-K1
- assayOverview: Radioligand competition binding with [3H]NT, membranes of CHO-K1 cells expressing hNTS2
- testConditions: text; read-out: Kd at hNTS2
Where a SMILES comes first, the peptide text is derived from it. [ ]: non-standard residue; d: D form. Ala(indol-4-yl) = N[C@@H](Cc1cccc2[nH]ccc12)C(=O)O; Tle = CC(C)(C)[C@H](N)C(=O)O; dOrn = NCCC[C@@H](N)C(=O)O
pKd values by entry
The value called pKd is obtained by taking minus log10 of the concentration in mol/L.

Record excerpt, results attached:
{"columns": ["compound", "pKd"],
 "data": [
  ["CC[C@H](C)[C@H](NC(=O)[C@@H](Cc1cccc2ccccc12)NC(=O)[C@@H]1CCCN1C(=O)[C@H](CCCNC(=N)N)NC(=O)[C@@H](N)CCCNC(=N)N)C(=O)N[C@@H](CC(C)C)C(=O)O [NT50, [D-3,1-Nal^11]NT(8-13)]", 7.76],
  ["CC[C@H](C)[C@H](NC(=O)[C@H](Cc1ccc(O)cc1)NC(=O)[C@@H]1CCCN1C(=O)[C@H](N)CCCN)C(=O)N[C@@H](CC(C)C)C(=O)O [NT35, [D-Orn^9]NT(9-13)] (H-[dOrn]PYIL-OH; N-terminus and C-terminus assumed)", 4.98],
  ["CC[C@H](C)[C@H](NC(=O)[C@@H](Cc1ccc2ccccc2c1)NC(=O)[C@@H]1CCCN1C(=O)[C@H](CCCNC(=N)N)NC(=O)[C@@H](N)CCCNC(=N)N)C(=O)N[C@@H](CC(C)C)C(=O)O [NT51, [D-3,2-Nal^11]NT(8-13)]", 7.48]
]}

Can you look up the measured pKd of CC(C)C[C@H](NC(=O)[C@@H](NC(=O)[C@H](Cc1cccc2[nH]ccc12)NC(=O)[C@@H]1CCCN1C(=O)[C@H](N)CCCCN)C(C)(C)C)C(=O)O [NT72] (H-[dK]P[Ala(indol-4-yl)][Tle]L-OH; N-terminus and C-terminus assumed) for me?
5.85
